Target: UniProtKB P31645
Sequence (P31645 whole entry): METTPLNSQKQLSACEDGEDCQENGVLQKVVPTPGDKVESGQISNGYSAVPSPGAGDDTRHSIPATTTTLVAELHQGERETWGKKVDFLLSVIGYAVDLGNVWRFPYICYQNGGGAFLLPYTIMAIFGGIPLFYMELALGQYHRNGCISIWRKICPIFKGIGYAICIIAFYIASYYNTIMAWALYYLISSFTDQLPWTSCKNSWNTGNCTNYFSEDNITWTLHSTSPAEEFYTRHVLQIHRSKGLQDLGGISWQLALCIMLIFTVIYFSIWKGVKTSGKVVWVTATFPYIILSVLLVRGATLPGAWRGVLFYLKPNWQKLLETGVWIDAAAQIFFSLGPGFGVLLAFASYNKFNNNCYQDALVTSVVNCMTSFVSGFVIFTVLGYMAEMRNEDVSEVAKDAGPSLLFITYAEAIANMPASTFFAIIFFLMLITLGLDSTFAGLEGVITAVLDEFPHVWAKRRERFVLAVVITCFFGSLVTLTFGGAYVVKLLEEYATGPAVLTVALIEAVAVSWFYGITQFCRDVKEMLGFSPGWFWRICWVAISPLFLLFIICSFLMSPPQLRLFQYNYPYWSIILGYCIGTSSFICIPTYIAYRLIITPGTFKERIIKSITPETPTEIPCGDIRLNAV
Assay: In vitro competitive binding versus [3H]-citalopram in murine kidney cells transfected with cDNA for human serotonin transporter (SERT)
Type: cell-based
pKi: −log10 of the molar value.
reported property: pKi

{"compound": "COC(=O)[C@@H]1C2CCC(C[C@@H]1c1ccc(/C=C/I)cc1)N2 (stereo partly specified)", "result value": 8.94}

---

Biological target: Sodium-dependent dopamine transporter (Homo sapiens, UniProt Q01959)
Sequence (Q01959 whole entry): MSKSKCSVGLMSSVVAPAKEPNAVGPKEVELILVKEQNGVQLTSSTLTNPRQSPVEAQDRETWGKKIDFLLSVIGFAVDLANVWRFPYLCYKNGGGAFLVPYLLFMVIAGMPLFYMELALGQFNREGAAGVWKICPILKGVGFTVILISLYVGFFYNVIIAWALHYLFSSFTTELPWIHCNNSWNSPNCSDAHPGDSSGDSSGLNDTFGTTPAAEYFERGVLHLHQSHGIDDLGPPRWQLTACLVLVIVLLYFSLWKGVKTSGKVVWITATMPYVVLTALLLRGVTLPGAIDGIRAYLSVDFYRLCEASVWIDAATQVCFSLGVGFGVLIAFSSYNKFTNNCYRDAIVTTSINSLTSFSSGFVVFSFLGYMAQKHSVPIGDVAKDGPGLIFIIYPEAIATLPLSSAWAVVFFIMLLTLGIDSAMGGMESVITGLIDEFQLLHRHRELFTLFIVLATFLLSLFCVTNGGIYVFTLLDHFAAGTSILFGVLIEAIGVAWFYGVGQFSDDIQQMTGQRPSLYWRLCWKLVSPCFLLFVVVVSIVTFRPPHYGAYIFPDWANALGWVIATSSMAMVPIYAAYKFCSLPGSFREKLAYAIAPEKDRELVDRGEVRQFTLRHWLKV
Test: In vitro competitive binding versus [N-methyl-3H]WIN-35428 in murine kidney cells transfected with cDNA for human dopamine transporter (DAT)
pKi: −log10 of the molar value.

{"molecule": "COC(=O)[C@@H]1C2CCC(C[C@@H]1c1ccc(/C=C/I)cc1)N2 (some centres undefined)", "target or system": "Sodium-dependent dopamine transporter (Homo sapiens, UniProt Q01959)", "pKi": 8.73}
{"molecule": "COC(=O)[C@@H]1C2CCC(C[C@@H]1c1ccc(/C=C\\I)cc1)N2 (some centres undefined)", "target or system": "Sodium-dependent dopamine transporter (Homo sapiens, UniProt Q01959)", "pKi": 8.46}
{"molecule": "COC(=O)[C@@H]1C2CCC(C[C@@H]1c1ccc(I)cc1)N2 (some centres undefined)", "target or system": "Sodium-dependent dopamine transporter (Homo sapiens, UniProt Q01959)", "pKi": 9.92}
{"molecule": "COC(=O)[C@@H]1C2CC[C@H](C[C@@H]1c1ccc(I)cc1)N2C", "target or system": "Sodium-dependent dopamine transporter (Homo sapiens, UniProt Q01959)", "pKi": 9.32}
